Biological target: T1, human CD19 on CHO-K1-human CD19 cells (human, UniProt P15391 20-556)
T1 construct: whole, on cells; also called CHO-K1-human CD19-2C8
T1 sequence (looked up): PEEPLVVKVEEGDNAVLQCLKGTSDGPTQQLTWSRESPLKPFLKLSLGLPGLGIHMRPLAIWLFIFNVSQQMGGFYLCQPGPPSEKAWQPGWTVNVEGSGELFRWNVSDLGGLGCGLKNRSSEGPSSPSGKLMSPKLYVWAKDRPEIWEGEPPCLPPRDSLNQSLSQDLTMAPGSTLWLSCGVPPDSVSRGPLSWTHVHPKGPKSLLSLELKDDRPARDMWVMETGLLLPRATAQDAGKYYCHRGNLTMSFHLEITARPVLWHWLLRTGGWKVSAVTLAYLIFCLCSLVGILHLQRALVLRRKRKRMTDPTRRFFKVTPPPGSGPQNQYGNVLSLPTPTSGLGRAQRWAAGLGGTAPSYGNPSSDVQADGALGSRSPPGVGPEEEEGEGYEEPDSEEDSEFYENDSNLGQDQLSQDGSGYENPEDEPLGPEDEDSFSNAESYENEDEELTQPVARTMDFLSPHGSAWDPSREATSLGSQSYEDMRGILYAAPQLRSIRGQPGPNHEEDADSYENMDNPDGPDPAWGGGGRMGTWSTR
Assay: FACS on CHO-K1-human CD19 cells
observedProperty: Maximum mean fluorescence intensity
Hey, just send me the number, nothing else.

Look over these answered cases.
F4.41.1 (antibody, human IgG1, V domains shown, human-murine chimeric antibody, human IgG1) VH: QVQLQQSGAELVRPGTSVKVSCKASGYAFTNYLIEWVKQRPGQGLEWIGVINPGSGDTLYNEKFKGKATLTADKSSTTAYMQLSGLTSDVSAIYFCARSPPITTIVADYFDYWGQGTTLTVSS VL: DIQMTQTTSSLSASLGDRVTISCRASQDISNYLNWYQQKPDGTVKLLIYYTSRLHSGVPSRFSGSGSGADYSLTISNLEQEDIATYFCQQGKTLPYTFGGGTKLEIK : 48600
F3.40.14 (antibody, human IgG1, V domains shown, human-murine chimeric antibody, human IgG1) VH: QAQLQQSGPELVKPGASVKISCKASGYAFSGSWMNWVQQRPGKGLEWIGRIYPGDGDTYYSGKFKDKAILTADTSSSTAYMQLSSLTSEDSAVYFCAQLRSRYVMDYWGQGASVTVSS VL: DIVLTQSPASLAVSLGQRATISCRASESVSIHGTHLMHWYQQKPGQPPRLLIYAASNLESGVPARFSGSGSETDFTLNIHPVEEEDAATYFCQQGIDDPYTFGGGTKLEIK : 49100

Could you now consider this next binder?
Problem: Name the reported Maximum mean fluorescence intensity value associated with the binder F4.125.12 (antibody, human IgG1, V domains shown, human-murine chimeric antibody, human IgG1) VH: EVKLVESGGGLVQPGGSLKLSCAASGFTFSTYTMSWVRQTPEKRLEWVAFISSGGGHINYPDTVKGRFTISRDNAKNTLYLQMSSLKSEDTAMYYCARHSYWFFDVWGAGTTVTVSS VL: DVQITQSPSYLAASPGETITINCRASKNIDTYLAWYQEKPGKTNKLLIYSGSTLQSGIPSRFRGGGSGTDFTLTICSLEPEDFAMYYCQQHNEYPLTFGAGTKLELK
Result: 51800

Data provenance: patent US20250042994A1
